Hi! I'm sharing some pKi results obtained with Myeloid Cell Leukemia 1 (Mcl-1) (Homo sapiens (Human)).
Sequence (Q07820 whole entry): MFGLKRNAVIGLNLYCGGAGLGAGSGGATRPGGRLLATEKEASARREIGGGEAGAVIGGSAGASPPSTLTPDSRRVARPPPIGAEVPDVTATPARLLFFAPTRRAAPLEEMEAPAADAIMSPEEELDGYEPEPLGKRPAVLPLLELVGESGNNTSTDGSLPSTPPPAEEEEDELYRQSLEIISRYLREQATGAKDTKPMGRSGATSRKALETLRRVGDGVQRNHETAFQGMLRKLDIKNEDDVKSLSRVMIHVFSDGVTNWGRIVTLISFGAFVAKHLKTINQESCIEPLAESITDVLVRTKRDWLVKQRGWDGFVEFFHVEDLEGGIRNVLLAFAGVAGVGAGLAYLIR
Here pKi is given on a logarithmic scale as minus log10 of the concentration in mol/L.

Look over these answered cases.
Cc1nn(C)c(C)c1-c1c(Cl)ccc2c3c(C(=O)O)n(c12)CCSCc1cc(n(C)n1)CCc1cc(c2ccc(F)cc2c1)OCCC3 (single isomer, unassigned) [Compound 6] :: 10.25
Cc1nn(C)c(C)c1-c1c(Cl)ccc2c3c(C(=O)O)n(c12)CCSCc1cc(n(C)n1)CSc1cc(c2ccccc2c1)OCCC3 (single isomer, unassigned) [Compound 13] :: 9.41
Cc1nn(C)c(C)c1-c1c(Cl)ccc2c3c(C(=O)O)n(c12)CCCS(=O)(=O)Cc1cc(n(C)n1)CCc1cc(c2ccc(F)cc2c1)OCCC3 (single isomer, unassigned) [Compound 5] :: 9.56
Cn1cc(-c2c(Cl)ccc3c4c(C(=O)O)n(c23)CCCSCc2cc(n(C)n2)CCc2cc(c3ccc(F)cc3c2)OCCC4)cn1 :: 9.01
Cc1c(-c2c(Cl)ccc3c4c(C(=O)O)n(c23)CCCSCc2cc(n(C)n2)CCc2cc(c3ccc(F)cc3c2)OCCC4)c(CO)nn1C (single isomer, unassigned) [Compound 16] :: 10.25
COCCn1nc(C)c(-c2c(Cl)ccc3c4c(C(=O)O)n(c23)CCCSCc2cc(n(C)n2)CCc2cc(c3ccc(F)cc3c2)OCCC4)c1C (single isomer, unassigned) [Compound 10] :: 10.03
COCCn1nc(C)c(-c2c(Cl)ccc3c4c(C(=O)O)n(c23)CCCSCc2cc(n(C)n2)CCc2cc(c3ccc(F)cc3c2)OCCC4)c1C (single isomer, unassigned) [Compound 9] :: 9.86
Cc1nn(C)c(C)c1-c1c(Cl)ccc2c3c(C(=O)O)n(c12)CCCSCc1cc(n(C)n1)CCc1cc(c2ccc(F)cc2c1)OCCC3 [Compound 1] :: 9.90
COCCOCc1nn(C)c(C)c1-c1c(Cl)ccc2c3c(C(=O)O)n(c12)CCCSCc1cc(n(C)n1)CCc1cc(c2ccc(F)cc2c1)OCCC3 (single isomer, unassigned) [Compound 21] :: 9.81
Cc1nn(C)c(C)c1-c1c(Cl)ccc2c3c(C(=O)O)n(c12)CCSCc1cc(n(C)n1)CSc1cc(c2ccccc2c1)OCCC3 (single isomer, unassigned) [Compound 14] :: 9.37

// below: pKi requested for another compound
query: Item under review: Cn1nc2cc1CCc1cc(c3ccc(F)cc3c1)OCCCc1c(C(=O)O)n(c3c(-c4cncnc4)c(Cl)ccc13)CCC[S+]([O-])C2 (centres unmarked) . Reported pKi?
result: 9.37

----------
Notes on Ki obtained with UniProtKB Q07820.
Report the figure in nM without appending any unit label.

Would you please look over these solved cases?
Cc1nn(C)c(C)c1-c1c(Cl)ccc2c3c(C(=O)O)n(c12)CCCSCc1cc(n(C)n1)CCc1cc(c2ccc(F)cc2c1)OCCC3 (single isomer, unassigned) [Compound 3] :: 0.133
Cc1nn(C)c(C)c1-c1c(Cl)ccc2c3c(C(=O)O)n(c12)CCSCc1cc(n(C)n1)CCc1cc(c2ccc(F)cc2c1)OCCC3 (single isomer, unassigned) [Compound 7] :: 0.086

Switching to the query record.
query: Query the reported Ki for UniProtKB Q07820; item: Cc1nn(C)c(C)c1-c1c(Cl)ccc2c3c(C(=O)O)n(c12)CCCS(=O)(=O)Cc1cc(n(C)n1)CCc1cc(c2ccc(F)cc2c1)OCCC3 (single isomer, unassigned) [Compound 4]
result: 0.251
